src = PubChem BioAssay (Tox21)

Test: qHTS assay to test for compound auto fluorescence at 535 nm (green) in HepG2 cell free culture (AID 720686)
Settings: Cell-free medium, green autofluorescence 485/535 nm; series mostly up to 91.3 µM
The source made the active and inactive calls. Calls come from the whole dose curve; as a rule, active = well fitted curve in the direction sought with a large enough effect in the repeat runs; inconclusive = weak or mixed curves; inactive = flat fitted curve, though single readings scatter.
PARAMETER: outcome

COC(C)(C)CCCC(C)C/C=C/C(C)=C/C(=O)OC(C)C (configuration not stated) ... inactive
CN1C(=O)CCS(=O)(=O)C1c1ccc(Cl)cc1 (configuration not stated) ... inactive
OCCCCO ... inactive
C=CC(=O)OCC(CC)CCCC (configuration not stated) ... inactive

Q: Specify reported outcome for the compound shown: `Nc1cccc(Cl)c1`
Ans: inactive

Q: Respond only with outcome recorded for `Cc1cccc(C)c1NC(=O)CN1CCCC1=O`
Ans: inactive

Q: Please list outcome recorded for the compound `COC(=O)Nc1cccc(OC(=O)Nc2cccc(C)c2)c1`
Ans: inactive
